Biological target: human AT1 receptor (Homo sapiens, UniProt P30556)
Construct: expressed in transfected cells; membrane fraction
Sequence (P30556 whole entry): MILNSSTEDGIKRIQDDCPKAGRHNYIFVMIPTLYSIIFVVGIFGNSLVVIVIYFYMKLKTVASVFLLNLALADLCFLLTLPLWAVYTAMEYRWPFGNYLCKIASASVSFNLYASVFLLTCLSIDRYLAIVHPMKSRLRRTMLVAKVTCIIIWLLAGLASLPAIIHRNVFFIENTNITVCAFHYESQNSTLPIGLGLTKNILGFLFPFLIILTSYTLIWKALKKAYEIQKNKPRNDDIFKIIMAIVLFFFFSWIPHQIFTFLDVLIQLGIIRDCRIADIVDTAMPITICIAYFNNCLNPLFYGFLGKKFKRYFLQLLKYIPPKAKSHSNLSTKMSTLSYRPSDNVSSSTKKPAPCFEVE
Test: AT1 receptor antagonistic activity: [125I]-angiotensin II binding assay on human AT1 receptor-expressing CHO-K1 cellular membrane fraction
Conditions: 22.5 pM [125I]-angiotensin II, 1 hr room temperature
As shown below, each of these molecules has a reported IC50 value.
Use nM as the unit, but write only the number.

molecule: CCCc1c(Cc2ccc(-c3ccccc3-c3noc(=O)[nH]3)cc2)c(=O)n([C@H]2CC[C@H](OCC(C)(C)O)CC2)c2c(F)cnn12
unit-string: nM
IC50: 2
--
molecule: CCCc1c(Cc2ccc(-c3ccccc3-c3noc(=O)[nH]3)cc2F)c(=O)n([C@H]2CC[C@@H](O)CC2)c2ncnn12
unit-string: nM
IC50: 1.3
--
molecule: CCCc1c(Cc2ccc(-c3ccccc3-c3noc(=O)[nH]3)cc2F)c(=O)n([C@H]2CC[C@H](OC(C)C#N)CC2)c2nc(C)nn12 (stereo partly drawn)
unit-string: nM
IC50: 2.5

Requested field: IC50. Item: C=CC(O)CO[C@H]1CC[C@H](n2c(=O)c(Cc3ccc(-c4ccccc4-c4noc(=O)[nH]4)cc3)c(CCC)n3ncnc32)CC1 (stereo partly drawn)
2

Requested field: IC50. Item: CCCc1c(Cc2ccc(-c3ccccc3-c3noc(=O)[nH]3)cc2)c(=O)n(C2CCC3(CC2)OCCCO3)c2ncnn12
3.1

Requested field: IC50. Item: CCCc1c(Cc2ccc(-c3ccccc3-c3noc(=O)[nH]3)cc2)c(=O)n([C@H]2CC[C@H](OCC(C)(O)CF)CC2)c2nc(C)nn12 (stereo partly drawn)
1.2

---

Molecular target: human PPARγ (Homo sapiens)
Construct: expressed in transfected cells
Sequence (P37231 1-477 isoform P37231-2): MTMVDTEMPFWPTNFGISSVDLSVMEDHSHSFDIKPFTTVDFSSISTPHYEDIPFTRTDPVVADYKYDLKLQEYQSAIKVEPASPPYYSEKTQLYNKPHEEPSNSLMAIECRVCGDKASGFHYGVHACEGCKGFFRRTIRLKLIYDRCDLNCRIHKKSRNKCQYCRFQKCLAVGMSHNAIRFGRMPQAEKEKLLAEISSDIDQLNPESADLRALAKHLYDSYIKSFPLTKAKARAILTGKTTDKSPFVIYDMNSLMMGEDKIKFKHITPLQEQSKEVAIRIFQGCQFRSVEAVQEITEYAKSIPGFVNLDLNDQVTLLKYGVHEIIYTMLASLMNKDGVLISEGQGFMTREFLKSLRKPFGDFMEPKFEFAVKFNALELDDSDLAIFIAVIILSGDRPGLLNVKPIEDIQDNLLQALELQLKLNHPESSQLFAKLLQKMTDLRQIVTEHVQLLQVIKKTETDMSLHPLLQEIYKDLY
Sequence (P19793 1-462 partner): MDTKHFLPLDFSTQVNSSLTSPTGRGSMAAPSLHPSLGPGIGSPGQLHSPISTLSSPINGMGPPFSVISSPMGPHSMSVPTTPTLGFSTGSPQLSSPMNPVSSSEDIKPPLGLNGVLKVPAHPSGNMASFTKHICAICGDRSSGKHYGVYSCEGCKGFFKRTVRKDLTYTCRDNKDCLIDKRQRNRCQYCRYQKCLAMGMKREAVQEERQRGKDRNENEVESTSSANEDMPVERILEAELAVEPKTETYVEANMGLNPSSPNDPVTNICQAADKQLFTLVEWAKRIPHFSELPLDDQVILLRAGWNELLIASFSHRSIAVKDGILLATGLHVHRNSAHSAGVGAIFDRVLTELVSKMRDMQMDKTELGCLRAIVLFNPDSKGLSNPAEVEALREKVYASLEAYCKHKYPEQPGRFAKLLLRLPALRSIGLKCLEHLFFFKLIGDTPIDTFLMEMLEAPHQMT
Test: PPARγ agonistic activity: luciferase reporter assay in PPARγ:RXRα:4ERPP/CHO-K1 cells
Format: cell-based
Details: CHO-K1, test compound 10^−6 M; luciferase activity of control compound X (1 μM) = 100%, non-administration group = 0%
Binary call on activation at 1 µM with cut-off 20%: strictly below means Criterion met, and equality or higher means Criterion not met.

Study these solved cases before continuing.
compound: CCCc1c(Cc2ccc(-c3ccccc3-c3noc(=O)[nH]3)cc2)c(=O)n([C@H]2CC[C@@]3(CC2)CC(C)=NO3)c2ncnn12 [Example 205]
label-class: Criterion not met

compound: C=CCOC1CCC(n2c(=O)c(Cc3ccc(-c4ccccc4-c4noc(=O)[nH]4)cc3)c(CCC)n3ncnc23)CC1 (stereo not shown) [Example 153]
label-class: Criterion not met

compound: CCCCc1c(Cc2ccc(-c3ccccc3-c3noc(=O)[nH]3)cc2)c(=O)n([C@@H]2C[C@@H](C)O[C@@H](C)C2)c2ncnn12 [Example 138]
label-class: Criterion met

Would you kindly verify if activation at 1 µM of CCCc1c(Cc2ccc(-c3ccccc3-c3noc(=O)[nH]3)cc2F)c(=O)n(C2CCOCC2)c2nc(C)nn12 [Example 108] is strictly less than 20%?
Criterion met

Would you kindly verify if activation at 1 µM of CCCc1c(Cc2ccc(-c3ccccc3-c3noc(=O)[nH]3)cc2)c(=O)n([C@H]2CC[C@@H](OCCO)CC2)c2nc(C)nn12 [Example 288] is strictly less than 20%?
Criterion met

Would you kindly verify if activation at 1 µM of CCCc1c(Cc2ccc(-c3ccccc3-c3noc(=O)[nH]3)cc2F)c(=O)n([C@H]2CC[C@H](OC(C)C3(O)CCC3)CC2)c2ncnn12 (stereo partly shown) [Example 371] is strictly less than 20%?
Criterion not met

Would you kindly verify if activation at 1 µM of CCCc1c(Cc2ccc(-c3ccccc3-c3noc(=O)[nH]3)cc2)c(=O)n(Cc2ccc(CC)nc2)c2nc(C)nn12 [Example 7] is strictly less than 20%?
Criterion not met

Would you kindly verify if activation at 1 µM of CCCCc1c(Cc2ccc(-c3ccccc3-c3noc(=O)[nH]3)cc2F)c(=O)n(C2CCOCC2)c2nc(C)nn12 [Example 135] is strictly less than 20%?
Criterion not met

Would you kindly verify if activation at 1 µM of CCCc1c(Cc2ccc(-c3ccccc3-c3noc(=O)[nH]3)cc2)c(=O)n([C@H]2CC[C@H](OC/C(C)=N/OC)CC2)c2ncnn12 [Example 216] is strictly less than 20%?
Criterion not met

Would you kindly verify if activation at 1 µM of CCCc1c(Cc2ccc(-c3ccccc3-c3noc(=O)[nH]3)cc2)c(=O)n(C(C)/C(C)=N/OCC)c2nc(C)nn12 (stereo not shown) [Example 114] is strictly less than 20%?
Criterion met

Would you kindly verify if activation at 1 µM of CCCc1c(Cc2ccc(-c3ccccc3-c3noc(=O)[nH]3)cc2)c(=O)n([C@H]2CC[C@H](OC(C)C(C)(C)O)CC2)c2ncnn12 (stereo partly shown) [Example 300] is strictly less than 20%?
Criterion met

Would you kindly verify if activation at 1 µM of CCCc1c(Cc2ccc(-c3ccccc3-c3noc(=O)[nH]3)cc2)c(=O)n([C@H]2CC[C@H](OCC(O)CC)CC2)c2ncnn12 (stereo partly shown) [Example 326] is strictly less than 20%?
Criterion not met

Would you kindly verify if activation at 1 µM of CCCc1c(Cc2ccc(-c3ccccc3-c3noc(=O)[nH]3)cc2)c(=O)n(C2CCOCC2)c2ncnn12 [Example 109] is strictly less than 20%?
Criterion met

Would you kindly verify if activation at 1 µM of CCCc1c(Cc2ccc(-c3ccccc3-c3noc(=O)[nH]3)cc2)c(=O)n([C@H]2CC[C@H](C(=O)OCC)CC2)c2ncnn12 [Example 168] is strictly less than 20%?
Criterion not met

Would you kindly verify if activation at 1 µM of CCCc1c(Cc2ccc(-c3ccccc3-c3noc(=O)[nH]3)cc2F)c(=O)n(-c2ccc(OC(C)C)cc2)c2ncnn12 [Example 43] is strictly less than 20%?
Criterion not met

Would you kindly verify if activation at 1 µM of CCCc1c(Cc2ccc(-c3ccccc3-c3noc(=O)[nH]3)cc2F)c(=O)n([C@H]2CC[C@H](OCC(C)(C)O)CC2)c2nc(C)nn12 [Example 360] is strictly less than 20%?
Criterion met

Would you kindly verify if activation at 1 µM of CCCc1c(Cc2ccc(-c3ccccc3-c3noc(=O)[nH]3)cc2)c(=O)n([C@H]2CC[C@H](OCC(C)=O)CC2)c2ccnn12 [Example 420] is strictly less than 20%?
Criterion not met

Would you kindly verify if activation at 1 µM of CCCc1c(Cc2ccc(-c3ccccc3-c3noc(=O)[nH]3)cc2)c(=O)n([C@H]2CC[C@H](Oc3ccc(C(C)=O)cc3)CC2)c2ncnn12 [Example 278] is strictly less than 20%?
Criterion not met

Would you kindly verify if activation at 1 µM of CCCc1c(Cc2ccc(-c3ccccc3-c3noc(=O)[nH]3)cc2)c(=O)n([C@H]2CC[C@@](C)(O)CC2)c2ncnn12 [Example 275] is strictly less than 20%?
Criterion not met

Would you kindly verify if activation at 1 µM of CCCc1c(Cc2ccc(-c3ccccc3-c3noc(=O)[nH]3)cc2F)c(=O)n(C2CCCOC2)c2ncnn12 (stereo not shown) [Example 121] is strictly less than 20%?
Criterion not met

Would you kindly verify if activation at 1 µM of CCCCc1c(Cc2ccc(-c3ccccc3-c3noc(=O)[nH]3)cc2)c(=O)n(C2CCC(OC)CC2)c2ncnn12 (stereo not shown) [Example 148] is strictly less than 20%?
Criterion not met

Would you kindly verify if activation at 1 µM of CCCc1c(Cc2ccc(-c3ccccc3-c3noc(=O)[nH]3)cc2)c(=O)n([C@H]2CC[C@@H](OCC(C)(C)O)CC2)c2ncnn12 [Example 158] is strictly less than 20%?
Criterion not met

Taken from patent US8283353B2.
